Target: beta-galactosidase (Escherichia coli, UniProt P00722)
Construct: gene lacZ
Sequence (P00722 2-1024): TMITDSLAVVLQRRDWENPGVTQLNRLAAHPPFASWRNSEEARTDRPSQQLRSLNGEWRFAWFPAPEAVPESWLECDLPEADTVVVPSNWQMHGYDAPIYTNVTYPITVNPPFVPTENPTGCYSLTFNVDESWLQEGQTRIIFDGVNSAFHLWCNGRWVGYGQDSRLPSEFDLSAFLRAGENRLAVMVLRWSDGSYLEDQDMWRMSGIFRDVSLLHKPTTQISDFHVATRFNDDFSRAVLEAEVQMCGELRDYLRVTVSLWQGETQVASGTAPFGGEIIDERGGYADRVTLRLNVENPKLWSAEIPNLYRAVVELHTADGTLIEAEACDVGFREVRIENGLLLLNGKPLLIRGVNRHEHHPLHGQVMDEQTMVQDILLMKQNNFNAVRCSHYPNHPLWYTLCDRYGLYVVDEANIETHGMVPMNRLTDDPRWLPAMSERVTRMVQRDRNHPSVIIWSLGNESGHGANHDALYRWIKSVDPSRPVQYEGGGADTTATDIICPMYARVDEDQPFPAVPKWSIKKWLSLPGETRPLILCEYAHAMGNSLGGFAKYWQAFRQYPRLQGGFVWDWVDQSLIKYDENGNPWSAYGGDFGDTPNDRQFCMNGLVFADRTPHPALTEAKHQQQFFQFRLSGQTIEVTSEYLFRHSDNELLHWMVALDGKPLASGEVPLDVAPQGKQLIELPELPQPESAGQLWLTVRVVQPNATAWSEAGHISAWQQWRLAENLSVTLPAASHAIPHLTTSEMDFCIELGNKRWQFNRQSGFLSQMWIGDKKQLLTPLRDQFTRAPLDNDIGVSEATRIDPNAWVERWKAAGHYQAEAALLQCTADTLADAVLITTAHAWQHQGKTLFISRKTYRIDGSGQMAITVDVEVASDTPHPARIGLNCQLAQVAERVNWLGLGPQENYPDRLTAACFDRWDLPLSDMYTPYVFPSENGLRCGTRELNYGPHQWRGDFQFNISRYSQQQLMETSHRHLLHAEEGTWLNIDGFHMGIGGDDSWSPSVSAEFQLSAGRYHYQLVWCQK
Test: ONPG hydrolysis absorbance assay at […] nm, Lineweaver-Burk
Format: biochemical
Reported metric: Ki (nM)
Reply numerically in nM, unit not repeated.

Prompt: Which Ki is listed for OC[C@H]1O[C@@H](SCCc2ccccc2)[C@H](O)[C@@H](O)[C@H]1O [PETG, phenylethyl beta-D-thiogalactopyranoside] ?
Response: 2330

Where do the numbers come from? From paper PMC9554301.
